Data credit: PubChem BioAssay (NCI)

System: SNB-19 CNS
Experiment: NCI tumour cell line growth inhibition, 48 h; in the data active means GI50 below about 0.43 µM; inactive means the rest
Outcome codes: active, inactive

molecule=C=C(Cl)[C@@](Cl)(CBr)CC[C@@H](Br)C(C)(C)Cl class_assignment=active
molecule=COc1ccc(/C=C\c2cc(OC)c(OC)c(OC)c2)c(NS(=O)(=O)c2ccc(C(C)(C)C)cc2)c1O class_assignment=inactive
molecule=COC(=O)[C@H](Cc1cn(C)cn1)NC(=O)[C@@H](NC(=O)Nc1cc(C(F)(F)F)cc(C(F)(F)F)c1)C(C)C class_assignment=inactive
molecule=O=C(OC[C@@H]1CO1)c1cccc2c(=O)c3ccccc3[nH]c12 class_assignment=inactive
